assay: WST-1 cytotoxicity study in MDCK cells; assay type: cell-based; settings: dog, MDCK cells (ASBT-MDCK or OCTN2-MDCK, not specified)
Measured viability at 10 min, 100 μM values are reported for all entries that follow.
Give the value in % but do not write % after it.

Prompt line: Can you share its viability at 10 min, 100 μM? I mean this compound: CCOC(=O)C1=C(COCCN)NC(C)=C(C(=O)OC)C1c1ccccc1Cl (centres unmarked)
Response line: 101

Next, consider the following compound.
Prompt line: Given the compound COC(=O)C1=C(C)NC(C)=C(C(=O)OCC(C)C)C1c1ccccc1[N+](=O)[O-] (centres unmarked) , what is its reported viability at 10 min, 100 μM?
Response line: 56

###

experiment: WST-1 cytotoxicity study in MDCK cells; format: cell-based; settings: dog, MDCK cells (ASBT-MDCK or OCTN2-MDCK, not specified)
value_type: viability at 10 min, 500 μM (%)
Lab book: enter the figure in %, no units written.

Prompt line: Would you kindly share the measured viability at 10 min, 500 μM for CCOC(=O)C1=C(COCCN)NC(C)=C(C(=O)OC)C1c1ccccc1Cl (stereo not shown) ?
Response line: 39.3

###

tested on: MDCK cells; experiment: WST-1 cytotoxicity study in MDCK cells; type: cell-based; conditions: cytotoxic if cell viability 80% or less; 10 min exposure
value_type: cytotoxicity in MDCK cells (in words)

Prompt line: May I ask what cytotoxicity in MDCK cells (in words) has been recorded for COC(=O)C1=C(C)NC(C)=C(C(=O)OCCN(C)Cc2ccccc2)C1c1cccc([N+](=O)[O-])c1 (stereo not shown) ?
Response line: cytotoxic to MDCK cells

Prompt line: // returns reported cytotoxicity in MDCK cells (in words) for input COC(=O)C1=C(C)NC(C)=C(C(=O)OCC(C)C)C1c1ccccc1[N+](=O)[O-] (stereo not shown)
Response line: cytotoxic to MDCK cells

Prompt line: Which cytotoxicity in MDCK cells (in words) value is on record for CCOC(=O)C1=C(COCCN)NC(C)=C(C(=O)OC)C1c1ccccc1Cl (stereo not shown) ?
Response line: cytotoxic to MDCK cells

###

biological target: human apical sodium-dependent bile acid transporter (ASBT; SLC10A2) (Homo sapiens); experiment: ASBT inhibition: taurocholate uptake into ASBT-MDCK cells; assay type: cell-based; details: with consideration of cytotoxicity
Sequence (Q12908 whole entry): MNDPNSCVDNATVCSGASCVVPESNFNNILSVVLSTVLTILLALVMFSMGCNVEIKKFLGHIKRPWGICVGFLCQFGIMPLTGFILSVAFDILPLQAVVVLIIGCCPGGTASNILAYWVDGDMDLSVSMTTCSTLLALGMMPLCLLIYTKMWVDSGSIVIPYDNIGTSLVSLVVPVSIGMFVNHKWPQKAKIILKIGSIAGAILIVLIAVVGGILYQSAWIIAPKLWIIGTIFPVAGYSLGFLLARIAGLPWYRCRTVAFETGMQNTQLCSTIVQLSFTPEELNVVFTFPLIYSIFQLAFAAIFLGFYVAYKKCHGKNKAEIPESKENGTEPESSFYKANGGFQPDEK
value_type: ASBT inhibitor

Prompt line: Data request, read-out ASBT inhibitor, for COC(=O)C1=C(C)NC(C)=C(C(=O)OCCN(C)Cc2ccccc2)C1c1cccc([N+](=O)[O-])c1 (stereo not shown) [Nicardipine, nicardipine]
Response line: only inhibited ASBT

Prompt line: # get_value(readout='ASBT inhibitor', item= COC(=O)C1=C(C)NC(C)=C(C(=O)OCC(C)C)C1c1ccccc1[N+](=O)[O-] (stereo not shown) [Nisoldipine, nisoldipine] )
Response line: only inhibited ASBT

Prompt line: Suppose we examine the molecule COc1ccc2c(c1)c(CC(=O)O)c(C)n2C(=O)c1ccc(Cl)cc1 [Indomethacin, indomethacin] ; what ASBT inhibitor value has been reported?
Response line: only inhibited ASBT

###

assay: WST-1 cytotoxicity study in MDCK cells; assay type: cell-based; settings: dog, MDCK cells (ASBT-MDCK or OCTN2-MDCK, not specified)
value_type: viability at 10 min (%)
Kindly provide the numeric value in % only, without the unit symbol.

Prompt line: Consider the compound shown here: CC(C)n1c(/C=C/C(O)CC(O)CC(=O)O)c(-c2ccc(F)cc2)c2ccccc21 (stereo not shown) What is its recorded viability at 10 min?
Response line: 107
